Assay: binders of probe aFST on microarray, primary screen, stem cell growth factor project, biochemical, small-molecule microarray, fluorescence 635/667 (AID 1086);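 also: score merges 667 nm fluorescence with signal-to-noise of each printed compound spot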
Conditions: higher = more signal
For each of the compounds below, state its composite z-score.
Numbers only.

>>> obs_value("CCCC[C@@H]1C[C@H]1[C@@H](NC(=O)c1cccs1)c1ccc(C(F)(F)F)cc1")
0.0353
>>> obs_value("COC(=O)Cn1c(C(=O)N(C)C)cc2c1C[C@H]1CN(C(=O)c3ccccc3)[C@@](Cc3ccc(F)cc3)(C(=O)OC)[C@@H]21")
0.114
>>> obs_value("O=C(NCC(F)(F)F)[C@@H]1c2ccccc2C(=O)N(Cc2ccccc2C(F)(F)F)[C@H]1c1ccc(CO)cc1")
-0.181
>>> obs_value("O=C1NC(=O)C2C1C=CC(C(O)CCc1ccccc1)N2Nc1ccc(Cl)cc1Cl (stereo not drawn)")
1.55
>>> obs_value("CCOC(=O)C1=CC[C@@H](c2ccccc2C(F)(F)F)N(S(=O)(=O)c2ccc(C)cc2)[C@H]1c1ccc(C#N)cc1")
1.11

// each compound listed below needs its composite z-score
1. Cc1ccc(S[C@]2(C(=O)NCC(F)(F)F)CC(=O)N(Cc3ccccc3)[C@@H]2c2ccc(CO)cc2I)cc1
2. CN(C)CCCCNC(=O)[C@@H]1C[C@@H]2C(=O)N[C@@H](Cc3ccccc3)C(=O)N2[C@@H]1c1cccc(OCCO)c1
3. [N-]=[N+]=NCc1ccccc1C[C@@]1(C(=O)N2CCCCC2)N=C(c2ccc(OCCCO)cc2)O[C@@H]1c1ccccc1

[0.164, 0.218, 0.301]
